- measurementNotes: Octanol-buffer distribution coefficient, log D of the compound at pH 7.4
- Format: physicochemical
assayEndpoint: logD

O=C(O)CCc1cn(Cc2ccc(F)cc2)c2cnc3c(c12)CCN(O)C3=O -0.74
CN(C)Cc1cn(Cc2ccc(F)cc2)c2cnc3c(c12)CCN(O)C3=O 0.89
CN(O)C(=O)c1cc2ccn(Cc3ccc(F)cc3)c2cn1 2.04
O=C1c2ncc3c(c(CCCN4CCOCC4)cn3Cc3ccc(F)cc3)c2CCN1O 0.1
O=C1c2ncc3c(c(CCC(F)(F)F)cn3Cc3ccc(F)cc3)c2CCN1O 2.32
N#Cc1cc(F)ccc1Cn1ccc2c3c(ncc21)C(=O)N(O)CC3 1.15

* * *

- measurementNotes: Oral bioavailability in dog at 4.2 mg/kg
- Type: ADME, organism-based, Canis lupus familiaris
- conditionContext: in vivo
assayEndpoint: bioavailability (%)

O=C1c2ncc3c(c(CN4CCCCC4)cn3Cc3ccc(F)cc3)c2CCN1O 33

* * *

- measurementNotes: Octanol-buffer distribution coefficient, log D of the compound at pH 7.4
- Type: physicochemical
assayEndpoint: logD

O=C1c2ncc3c(c(CN4CCC(F)(F)C4)cn3Cc3ccc(F)cc3)c2CCN1O 2.02
N#Cc1c(Cn2ccc3c4c(ncc32)C(=O)N(O)CC4)ccc(F)c1Cl 1.7
CN(Cc1cn(Cc2ccc(F)cc2)c2cnc3c(c12)CCN(O)C3=O)CC1CC1 1.52
O=C1c2ncc3c(ccn3Cc3ncc(F)cc3F)c2CCN1O 0.77

* * *

- measurementNotes: Clearance in dog
- Type: ADME, organism-based, Canis lupus familiaris
- conditionContext: in vivo
assayEndpoint: clearance (mL/min/kg)

CN(O)C(=O)c1cc2c(CN3CCC[C@H]3C(N)=O)cn(Cc3ccc(F)cc3)c2cn1 15
